Values compiled from patent US9089569B2.

Target: human FLAP (Homo sapiens (Human), UniProt P20292)
Sequence (P20292 whole entry): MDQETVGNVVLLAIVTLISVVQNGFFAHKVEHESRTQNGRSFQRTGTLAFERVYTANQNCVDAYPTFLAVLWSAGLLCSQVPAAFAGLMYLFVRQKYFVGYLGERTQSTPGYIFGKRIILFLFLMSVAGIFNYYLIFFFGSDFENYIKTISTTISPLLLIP
Readout: Ki (nM)
Answer format: numeric, nM implied, no suffix.

Lookup: Report Ki on human FLAP (Homo sapiens (Human), UniProt P20292) for this entry: Cn1ccc(COc2cc3c(cc2F)nc([C@@H]2CCCC[C@@H]2C(=O)O)n3Cc2ccc(OC(F)(F)F)cc2F)n1 (racemic)
Found: 27

* * *

Test system: leukotriene pathway in human whole blood (LTB4)
Assay: Human whole blood assay (LTB4, A23187-stimulated)
Format: cell-based
Settings: human whole blood diluted 1:1, calcium ionophore A23187 stimulation, LTB4 levels
Counter-ions that a name gives are not always drawn.
Readout: IC50 (nM)
Numbers only here, please. The scale is nM.

Answered examples (3):
{"Compound": "Cc1ccc(COc2ccc3nc([C@@H]4[C@H](C(=O)O)C4(C)C)n(Cc4ccc(OC(F)(F)F)cc4)c3c2)nc1 (racemic)", "Value units": "nM", "IC50": 3120}
{"Compound": "Cn1ccc(COc2cc(F)c3nc(C4CCCC[C@@H]4C(=O)O)n(Cc4ccc(N5CC(F)(F)C5)cc4)c3c2)n1 (mixture of isomers) [Example 168, formate salt]", "Value units": "nM", "IC50": 3570}
{"Compound": "Cc1ccc(COc2ccc3nc([C@H]4CCCC[C@H]4C(=O)O)n(Cc4ccc(OC(F)(F)F)c(Cl)c4)c3c2)nc1 (racemic)", "Value units": "nM", "IC50": 210}

Turning to the following compound.
Lookup: Report measured IC50; entry is `CCC(CC)(Cc1nc2ccc(OCc3ccn(C)n3)cc2n1Cc1ccc(-c2ccc(C(F)(F)F)cc2)cc1)C(=O)O`
Found: 550
